test system: 454973-116-R2-J3-PDC complex spheroid viability; experiment: Anticancer human tumor 454973-116-R2-J3-PDC patient-derived pancreatic carcinoma cell line growth inhibition [POLQ]; conditions: second compound 1 µM; first compound 3.16 µM; active compounds read low
Recorded metric: viability, T/C (%)
Numbers only, in %.

Examples with their reported viability, T/C follow.
INSERT INTO results (compound, assay_result) VALUES
  ('COc1cc2cc(C(=O)CCC(=O)O)sc2cc1OC + Cc1cccc(N(C)C(=O)C2C(O)CCN2c2nc(C)cc(C(F)(F)F)c2C#N)c1', 105),
  ('Nc1ccn(C2OC(CO)C(O)C2(F)F)c(=O)n1 (stereo not drawn) + COC1C(OC(N)=O)C(O)C(Oc2ccc3c(O)c(NC(=O)c4ccc(O)c(CC=C(C)C)c4)c(=O)oc3c2C)OC1(C)C', 11.2);

GET viability, T/C | system: 454973-116-R2-J3-PDC complex spheroid viability | item: O=c1[nH]cc(F)c(=O)[nH]1 + Nc1ccc(C#CCN(C(=O)Cc2ncc(C(F)(F)F)cc2C(F)(F)F)c2ccc(F)cc2)nn1 28.1

---

test system: 454973-116-R2-J3-PDC complex spheroid viability; assay: Anticancer human tumor 454973-116-R2-J3-PDC cell line growth inhibition [POLQ]; conditions: second compound 0.316 µM; first compound 0.1 µM; active = viability on the fitted dose curve at most 10% of control; inactive = the rest
Give one outcome, nothing more. List: label 1 = active, label 0 = inactive

Worked set:
INSERT INTO results (compound, test_target, category) VALUES
  ('COc1cc2cc(C(=O)CCC(=O)O)sc2cc1OC + Cc1cccc(N(C)C(=O)C2C(O)CCN2c2nc(C)cc(C(F)(F)F)c2C#N)c1', '454973-116-R2-J3-PDC complex spheroid viability', 'label 0'),
  ('CC1COCCN1c1cc(-c2ccnn2C)c2ccnc(-c3ccn[nH]3)c2n1 (stereo not drawn) + Cc1cccc(N(C)C(=O)C2C(O)CCN2c2nc(C)cc(C(F)(F)F)c2C#N)c1', '454973-116-R2-J3-PDC complex spheroid viability', 'label 0');

Query: recorded result category for CCc1c2c(nc3ccc(O)cc13)-c1cc3c(c(=O)n1C2)COC(=O)[C@]3(O)CC + Cc1cccc(N(C)C(=O)C2C(O)CCN2c2nc(C)cc(C(F)(F)F)c2C#N)c1 in this test label 1

---

system: 454973-116-R2-J3-PDC complex spheroid viability; test: Anticancer human tumor 454973-116-R2-J3-PDC cell line growth inhibition [POLQ]; conditions: second compound 0.0316 µM; first compound 0.01 µM; active compounds read low;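 also: spheroids exposed to drugs for seven days before measurement; percent viability relative to DMSO vehicle control wells taken as 100%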
Task for the reader: assign each of the following compounds its reported viability, T/C.

INSERT INTO assay_data (compound, recorded_metric, assay_result) VALUES
  ('CCc1c2c(nc3ccc(O)cc13)-c1cc3c(c(=O)n1C2)COC(=O)[C@]3(O)CC + COC1C(OC(N)=O)C(O)C(Oc2ccc3c(O)c(NC(=O)c4ccc(O)c(CC=C(C)C)c4)c(=O)oc3c2C)OC1(C)C', 'viability, T/C', '16.3%'),
  ('CCc1c2c(nc3ccc(O)cc13)-c1cc3c(c(=O)n1C2)COC(=O)[C@]3(O)CC + Nc1ccc(C#CCN(C(=O)Cc2ncc(C(F)(F)F)cc2C(F)(F)F)c2ccc(F)cc2)nn1', 'viability, T/C', '11.3%'),
  ('Cn1ncnc1[C@H]1c2n[nH]c(=O)c3cc(F)cc(c23)N[C@@H]1c1ccc(F)cc1 + COC1C(OC(N)=O)C(O)C(Oc2ccc3c(O)c(NC(=O)c4ccc(O)c(CC=C(C)C)c4)c(=O)oc3c2C)OC1(C)C', 'viability, T/C', '109%');

Let us examine a further case.
Identify the reported viability, T/C for the following entry. COc1cccc(OCCCN)c1-c1cc(Nc2cnc(C#N)cn2)n[nH]1 + Nc1ccc(C#CCN(C(=O)Cc2ncc(C(F)(F)F)cc2C(F)(F)F)c2ccc(F)cc2)nn1 76.6%

---

system: 454973-116-R2-J3-PDC complex spheroid viability; experiment: Anticancer human tumor 454973-116-R2-J3-PDC cell line growth inhibition [POLQ]; details: second compound 3.16 µM; first compound 0.1 µM; active = viability on the fitted dose curve at most 10% of control; inactive = the rest;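 also: spheroids exposed to drugs for seven days before measurement; percent viability relative to DMSO vehicle control wells taken as 100%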
In this exercise, the only acceptable responses are active, inactive

Examples from the recorded data:
INSERT INTO assay_data (compound, category) VALUES
  ('Cn1ncnc1[C@H]1c2n[nH]c(=O)c3cc(F)cc(c23)N[C@@H]1c1ccc(F)cc1 + Cc1cccc(N(C)C(=O)C2C(O)CCN2c2nc(C)cc(C(F)(F)F)c2C#N)c1', 'inactive'),
  ('C=CC(=O)N1CCN(c2nc(=O)n(-c3c(C)ccnc3C(C)C)c3nc(-c4c(O)cccc4F)c(F)cc23)C(C)C1 (stereo not given) + Cc1cccc(N(C)C(=O)C2C(O)CCN2c2nc(C)cc(C(F)(F)F)c2C#N)c1', 'inactive'),
  ('CCc1c2c(nc3ccc(O)cc13)-c1cc3c(c(=O)n1C2)COC(=O)[C@]3(O)CC + COC1C(OC(N)=O)C(O)C(Oc2ccc3c(O)c(NC(=O)c4ccc(O)c(CC=C(C)C)c4)c(=O)oc3c2C)OC1(C)C', 'active'),
  ('O=C(Nc1ccc(O)c(NS(=O)(=O)c2ccc(F)cc2)c1)c1ccc(-c2ccccc2)cc1 + Cc1cccc(N(C)C(=O)C2C(O)CCN2c2nc(C)cc(C(F)(F)F)c2C#N)c1', 'inactive');

With those in mind, consider the next compound.
For this compound, state the assay outcome: CC[C@@]1(O)C(=O)OCc2c1cc1n(c2=O)Cc2cc3c(CN(C)C)c(O)ccc3nc2-1 + COC1C(OC(N)=O)C(O)C(Oc2ccc3c(O)c(NC(=O)c4ccc(O)c(CC=C(C)C)c4)c(=O)oc3c2C)OC1(C)C inactive

---

system: 454973-116-R2-J3-PDC complex spheroid viability; assay: Anticancer human tumor 454973-116-R2-J3-PDC cell line growth inhibition [POLQ]; settings: second compound 3.16 µM; first compound 3.16 µM; active compounds read low;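 also: spheroids exposed to drugs for seven days before measurement; percent viability relative to DMSO vehicle control wells taken as 100%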
Assign viability, T/C to each entry below.

INSERT INTO measurements (compound, test_target, assay_result) VALUES
  ('CC1COCCN1c1cc(C2(O)CC3CCC(C2)O3)c2cnn(-c3ccn[nH]3)c2n1 (stereo not drawn) + Cc1cccc(N(C)C(=O)C2C(O)CCN2c2nc(C)cc(C(F)(F)F)c2C#N)c1', '454973-116-R2-J3-PDC complex spheroid viability', '26%'),
  ('CC1COCCN1c1cc(-c2ccnn2C)c2ccnc(-c3ccn[nH]3)c2n1 (stereo not drawn) + Nc1ccc(C#CCN(C(=O)Cc2ncc(C(F)(F)F)cc2C(F)(F)F)c2ccc(F)cc2)nn1', '454973-116-R2-J3-PDC complex spheroid viability', '9.64%');

The record that follows has no viability, T/C shown yet.
Return viability, T/C for the following compound: COc1cc2cc(C(=O)CCC(=O)O)sc2cc1OC + COC1C(OC(N)=O)C(O)C(Oc2ccc3c(O)c(NC(=O)c4ccc(O)c(CC=C(C)C)c4)c(=O)oc3c2C)OC1(C)C 105%

---

system: 454973-116-R2-J3-PDC complex spheroid viability; assay: Anticancer human tumor 454973-116-R2-J3-PDC cell line growth inhibition [POLQ]; settings: second compound 10 µM; first compound 1 µM; active compounds read low;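 also: spheroids exposed to drugs for seven days before measurement; percent viability relative to DMSO vehicle control wells taken as 100%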
Field: viability, T/C. Provide a value for each of the compounds that follow.
One number for each entry, in %.

Example compounds with recorded viability, T/C:
INSERT INTO results (compound, recorded_metric, assay_result) VALUES
  ('COc1cc(C2c3cc4c(cc3C(OC3OC5COC(C)OC5C(O)C3O)C3COC(=O)C23)OCO4)cc(OC)c1O (stereo not given) + Nc1ccc(C#CCN(C(=O)Cc2ncc(C(F)(F)F)cc2C(F)(F)F)c2ccc(F)cc2)nn1', 'viability, T/C', 43.5),
  ('O=C(c1cc(Cc2n[nH]c(=O)c3ccccc23)ccc1F)N1CCN(C(=O)C2CC2)CC1 + COC1C(OC(N)=O)C(O)C(Oc2ccc3c(O)c(NC(=O)c4ccc(O)c(CC=C(C)C)c4)c(=O)oc3c2C)OC1(C)C', 'viability, T/C', 107),
  ('CC1COCCN1c1cc(-c2ccnn2C)c2ccnc(-c3ccn[nH]3)c2n1 (stereo not given) + Nc1ccc(C#CCN(C(=O)Cc2ncc(C(F)(F)F)cc2C(F)(F)F)c2ccc(F)cc2)nn1', 'viability, T/C', 10.5),
  ('O=c1[nH]cc(F)c(=O)[nH]1 + COC1C(OC(N)=O)C(O)C(Oc2ccc3c(O)c(NC(=O)c4ccc(O)c(CC=C(C)C)c4)c(=O)oc3c2C)OC1(C)C', 'viability, T/C', 100);

Then this compound:
Identify measured viability, T/C corresponding to O=C(Nc1ccc(O)c(NS(=O)(=O)c2ccc(F)cc2)c1)c1ccc(-c2ccccc2)cc1 + COC1C(OC(N)=O)C(O)C(Oc2ccc3c(O)c(NC(=O)c4ccc(O)c(CC=C(C)C)c4)c(=O)oc3c2C)OC1(C)C 104

# credit: PubChem BioAssay AID1963846
